- Tested Target: sGC α1/β1 heterodimer (Homo sapiens (Human), UniProt Q02108+Q02153)
- Protocol Description: Cell-based sGC functional assay (cyclic GMP assay for sGC activator: CASA assay)
- Details: inflection point, 4P fit; CHO-K1/sGC cells; read-out: IP
Observation Type: EC50 (nM)

Answered examples (3):
Compound	EC50 / nM
CC(C)(Cc1csc([C@]2(C)C(=O)Nc3nc(-c4nn(Cc5c(F)ccc(F)c5F)c5cc(Cl)ccc45)nc(N)c32)n1)C(=O)O [Example 190A]	49
C[C@@]1(c2ccc(CCc3noc(=O)[nH]3)cc2)C(=O)Nc2nc(-c3nn(Cc4ccccc4F)c4cc(Cl)ccc34)nc(N)c21 [Example 256B]	2050
CC1CCC(Cn2nc(-c3nc(N)c4c(n3)NC(=O)C4(C)c3nc(CC(C)(C)C(=O)O)co3)c3cccnc32)CC1 (single isomer, unassigned) [Example 126AB]	199

P. CC(C)(Cc1coc(C2(C)C(=O)Nc3nc(-c4nn(Cc5ncccc5F)c5cc(Cl)ccc45)nc(N)c32)n1)C(=O)O (stereo not drawn) [Example 184A]
Q. CC(C)(Cc1csc([C@]2(C)C(=O)Nc3nc(-c4nn(Cc5cccc(F)c5)c5ncccc45)nc(N)c32)n1)C(=O)O [Example 149A]
R. CC(C)(Cc1coc(C2(C)C(=O)Nc3nc(-c4nn(Cc5ccc(F)cc5F)c5cc(Cl)ccc45)nc(N)c32)n1)C(=O)O (stereo not drawn) [Example 178A]
// ranking: key=EC50, reverse=True Put the labels in the order asked and list them.
R, P, Q
(R: 429 nM, P: 230 nM, Q: 111 nM)

###

- Tested Target: sGC α1/β1 heterodimer (Homo sapiens (Human), UniProt Q02108+Q02153)
- Protocol Description: Cell-based sGC functional assay (cyclic GMP assay for sGC activator: CASA assay)
- Details: inflection point, 4P fit; CHO-K1/sGC cells; read-out: IP
Observation Type: EC50 (nM)

Answered examples (5):
Compound	Unit Symbol	EC50
C[C@@]1(c2ccc(CCC(=O)O)cc2)C(=O)Nc2nc(-c3nn(Cc4ncccc4F)c4ccccc34)nc(N)c21 [Example 232B]	nM	4150
CC(C)(Cn1cc(C2(C)C(=O)Nc3nc(-c4nn(Cc5ccccc5F)c5cc(Cl)ccc45)nc(N)c32)nn1)C(=O)O (single isomer, unassigned) [Example 140A]	nM	798
C[C@@]1(c2ccc(CCC(=O)O)cc2)C(=O)Nc2nc(-c3nn(CC4CCCCC4)c4cc(Cl)ccc34)nc(N)c21 [Example 44B]	nM	245
C[C@H](NC(=O)CCc1ccc([C@]2(C)C(=O)Nc3nc(-c4nn(Cc5ccccc5F)c5ncccc45)nc(N)c32)cc1)C(=O)O [Example 103B]	nM	2950
CCCCn1nc(-c2nc(N)c3c(n2)NC(=O)[C@@]3(C)c2ccc(CCC(=O)O)cc2)c2cccnc21 [Example 14B]	nM	525

P. CC1(c2nc(C[C@H](N)C(=O)O)cs2)C(=O)Nc2nc(-c3nn(Cc4ccccc4F)c4cc(Cl)ccc34)nc(N)c21 (stereo partly shown) [Example 234B]
Q. C[C@@]1(c2ccc(CCc3nn[nH]n3)cc2)C(=O)Nc2nc(-c3nn(Cc4ccccc4F)c4ccccc34)nc(N)c21 [Example 242B]
R. C[C@@]1(c2ccc(CCC(=O)O)cc2)C(=O)Nc2nc(-c3nn(CC4CCCC4)c4cc(Cl)ccc34)nc(N)c21 [Example 160B]
S. C[C@@]1(c2ccc(CCC(=O)O)cc2)C(=O)Nc2nc(-c3nn(Cc4ccccc4F)c4ccc(F)cc34)nc(N)c21 [Example 71B]
T. CC1(c2ccc(-c3nn[nH]n3)cc2)C(=O)Nc2nc(-c3nn(Cc4ccccc4F)c4cc(F)ccc34)nc(N)c21 (stereo not shown) [Example 250B]
Put the compounds in ascending order of EC50. Put the labels in the order asked and list them.
S, R, P, T, Q

A. CC(C)(Cc1coc(C2(C)C(=O)Nc3nc(-c4nn(Cc5ccccc5F)c5cc(Cl)ccc45)nc(N)c32)n1)c1nn[nH]n1 (stereo not shown) [Example 239A]
B. Cc1ccnc(Cn2nc(-c3nc(N)c4c(n3)NC(=O)C4(C)c3nc(CC(C)(C)C(=O)O)co3)c3ccc(Cl)cc32)c1F (stereo not shown) [Example 215A]
C. C[C@@]1(c2ccc(CCC(=O)O)cc2)C(=O)Nc2nc(-c3nn(CCC(F)(F)C(F)(F)F)c4ncccc34)nc(N)c21 (single isomer, unassigned)
// ranking: key=EC50, reverse=True Put the labels in the order asked and list them.
B, C, A

###

- Tested Target: human recombinant sGC enzyme (Homo sapiens (Human), UniProt Q02108+Q02153)
- Protocol Description: Size Exclusion Chromatography (SEC) competition binding assay using [3H] Ex-77B as the radioligand
- Details: [3H] Ex-77B radioligand, 24 hours at 37° C.
pKi: −log10 of the molar value.
Observation Type: pKi

a. CC(C)(Cc1coc(C2(C)C(=O)Nc3nc(-c4nn(CC5CCCCO5)c5cc(F)ccc45)nc(N)c32)n1)C(=O)O (single isomer, unassigned) [Example 134AA]
b. Cc1cccc(Cn2nc(-c3nc(N)c4c(n3)NC(=O)C4(C)c3nc(CC(C)(C)C(=O)O)co3)c3ccccc32)c1 (stereo not drawn) [Example 226A]
Param pair: a , b . Output: the one whose pKi is numerically greater. Which one? Tell me its label.
b

a. C[C@@]1(c2ccc(CCC(=O)O)cc2)C(=O)Nc2nc(-c3nn(CCC(F)(F)C(F)(F)F)c4ncccc34)nc(N)c21 (single isomer, unassigned)
b. C[C@@]1(c2ccc(CCC(=O)O)cc2)C(=O)Nc2nc(-c3nn(Cc4ccccc4F)c4cc(Cl)c(O)cc34)nc(N)c21 [Example 110B]
Param pair: a , b . Output: the one whose pKi is numerically greater. Which one? Tell me its label.
a
(a: 9.81, b: 9.44)

a. CC(C)(Cc1csc([C@]2(C)C(=O)Nc3nc(-c4nn(Cc5ccc(F)cc5F)c5cc(Cl)ccc45)nc(N)c32)n1)C(=O)O [Example 179A]
b. CC(C)(CCc1csc(C2(C)C(=O)Nc3nc(-c4nn(Cc5cccc(F)c5)c5cc(F)ccc45)nc(N)c32)n1)C(=O)O (stereo not drawn) [Example 196A]
Param pair: a , b . Output: the one whose pKi is numerically greater. Which one? Tell me its label.
a
(a: 9.84, b: 9.33)

###

- Tested Target: human recombinant sGC enzyme (Homo sapiens (Human), UniProt Q02108+Q02153)
- Protocol Description: Size Exclusion Chromatography (SEC) competition binding assay using [3H] Ex-77B as the radioligand
- Details: [3H] Ex-77B radioligand, 24 hours at 37° C.
pKi: −log10 of the molar value.
Observation Type: pKi

Compound	Observation Type	Endpoint Result
CC(C)(CCc1csc(C2(C)C(=O)Nc3nc(-c4nn(Cc5ccccc5F)c5ccccc45)nc(N)c32)n1)C(=O)O (stereo not shown) [Example 204A]	pKi	9.57
CC(C)(Cc1csc([C@]2(C)C(=O)Nc3nc(-c4nn(Cc5ccc(F)cc5)c5cc(Cl)ccc45)nc(N)c32)n1)C(=O)O [Example 174A]	pKi	9.76
CCCCn1nc(-c2nc(N)c3c(n2)NC(=O)[C@@]3(C)c2ccc(CCC(=O)O)cc2)c2ccc(C)nc21 [Example 111B]	pKi	8.95
Cc1cccc(Cn2nc(-c3nc(N)c4c(n3)NC(=O)C4(C)c3nc(CC(C)(C)C(=O)O)co3)c3ccc(Cl)cc32)c1F (stereo not shown) [Example 187A]	pKi	10.54
CC1(c2nc(-c3ccc(C(=O)O)cc3)cs2)C(=O)Nc2nc(-c3nn(Cc4ccccc4F)c4ncccc34)nc(N)c21 (stereo not shown) [Example 147A]	pKi	10.12

P. C[C@@]1(c2ccc(CCC(=O)O)cc2)C(=O)Nc2nc(-c3nn(CCC(F)(F)C(F)(F)F)c4cc(F)ccc34)nc(N)c21 [Example 46B]
Q. CCCCn1nc(-c2nc(N)c3c(n2)NC(=O)[C@@]3(C)c2ccc(CCC(=O)O)cc2)c2ccc(Cl)nc21 [Example 13B]
Param pair: P , Q . Output: the one whose pKi is numerically greater. Which one? Tell me its label.
Q

1. CC(C)(Cc1ccc(C2(C)C(=O)Nc3nc(-c4nn(CCC(F)(F)C(F)(F)F)c5ncccc45)nc(N)c32)cc1)C(=O)O (stereo not shown)
2. CC1(N2CCC(CCC(=O)O)C2)C(=O)Nc2nc(-c3nn(Cc4ccccc4F)c4cc(Cl)ccc34)nc(N)c21 (single isomer, unassigned) [Example 261D]
Hi! Which is lower in terms of pKi, the first one 1 or the second one 2 ? Which one? Tell me its label.
1
(1: 9.43, 2: 9.73)

a. CC1CCC(Cn2nc(-c3nc(N)c4c(n3)NC(=O)[C@@]4(C)c3nc(CC(C)(C)C(=O)O)cs3)c3cccnc32)CC1 (single isomer, unassigned) [Example 125AB]
b. CC(C)(Cc1coc(C2(C)C(=O)Nc3nc(-c4nn(CC5CCCCO5)c5ccccc45)nc(N)c32)n1)C(=O)O (single isomer, unassigned) [Example 230AA]
Hi! Which is lower in terms of pKi, the first one a or the second one b ? Which one? Tell me its label.
a
